Each entry below lists one item and its recorded clearance value.
protocolDetails: Plasma clearance in iv/po dosed mouse by LC-MS/MS analysis
Format: ADME, organism-based
quantityMeasured: clearance (mL/min/kg)

>>> numericvalue("CC(C)(C)[C@H](NC(=O)[C@H](CC1CCCC1)CN(O)C=O)C(=O)N1CCC(NCc2cc(F)c(F)cc2F)CC1")
19
>>> numericvalue("CC(C)(C)[C@H](NC(=O)[C@H](CC1CCCC1)CN(O)C=O)C(=O)N1CCC(NC(=O)c2ccc(C#N)cc2)CC1")
44
>>> numericvalue("CC(C)(C)[C@H](NC(=O)[C@H](CC1CCCC1)CN(O)C=O)C(=O)N1CCC(NCc2ccc(C#N)cc2)CC1")
51.5
